- Test Target: Albumin (Homo sapiens)
- Sequence (P02768 whole entry): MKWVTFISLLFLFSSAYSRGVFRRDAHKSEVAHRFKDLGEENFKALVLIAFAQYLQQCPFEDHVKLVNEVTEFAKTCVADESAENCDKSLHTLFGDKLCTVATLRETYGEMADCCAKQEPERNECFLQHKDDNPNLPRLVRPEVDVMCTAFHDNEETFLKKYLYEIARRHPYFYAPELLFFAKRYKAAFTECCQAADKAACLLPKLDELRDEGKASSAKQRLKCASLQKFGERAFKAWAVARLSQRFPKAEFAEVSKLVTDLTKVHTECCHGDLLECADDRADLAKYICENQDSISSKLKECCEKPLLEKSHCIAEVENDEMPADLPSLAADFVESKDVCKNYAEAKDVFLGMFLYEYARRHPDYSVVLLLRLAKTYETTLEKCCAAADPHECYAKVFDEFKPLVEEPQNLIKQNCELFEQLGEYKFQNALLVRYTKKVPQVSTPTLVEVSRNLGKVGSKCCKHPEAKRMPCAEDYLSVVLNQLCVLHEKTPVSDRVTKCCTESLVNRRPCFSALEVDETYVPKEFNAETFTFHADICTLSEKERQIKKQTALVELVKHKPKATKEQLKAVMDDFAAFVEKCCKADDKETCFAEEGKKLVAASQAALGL
- Protocol Notes: Displacement of dansylated arginine from human serum albumin by fluorescence assay
- Assay Setup: read-out: Kd(app)
pKd: −log10 of the molar value.
Quantity: pKd

[[record]]
smiles_input = "CC(C)(C)c1cc(C(=O)/C(C#N)=N/Nc2cccc(Cl)c2)no1"
test_target = "Albumin (Homo sapiens)"
observed_measurement = 6.64


---

- Test Target: UniProt:O95398
- Sequence (O95398 whole entry): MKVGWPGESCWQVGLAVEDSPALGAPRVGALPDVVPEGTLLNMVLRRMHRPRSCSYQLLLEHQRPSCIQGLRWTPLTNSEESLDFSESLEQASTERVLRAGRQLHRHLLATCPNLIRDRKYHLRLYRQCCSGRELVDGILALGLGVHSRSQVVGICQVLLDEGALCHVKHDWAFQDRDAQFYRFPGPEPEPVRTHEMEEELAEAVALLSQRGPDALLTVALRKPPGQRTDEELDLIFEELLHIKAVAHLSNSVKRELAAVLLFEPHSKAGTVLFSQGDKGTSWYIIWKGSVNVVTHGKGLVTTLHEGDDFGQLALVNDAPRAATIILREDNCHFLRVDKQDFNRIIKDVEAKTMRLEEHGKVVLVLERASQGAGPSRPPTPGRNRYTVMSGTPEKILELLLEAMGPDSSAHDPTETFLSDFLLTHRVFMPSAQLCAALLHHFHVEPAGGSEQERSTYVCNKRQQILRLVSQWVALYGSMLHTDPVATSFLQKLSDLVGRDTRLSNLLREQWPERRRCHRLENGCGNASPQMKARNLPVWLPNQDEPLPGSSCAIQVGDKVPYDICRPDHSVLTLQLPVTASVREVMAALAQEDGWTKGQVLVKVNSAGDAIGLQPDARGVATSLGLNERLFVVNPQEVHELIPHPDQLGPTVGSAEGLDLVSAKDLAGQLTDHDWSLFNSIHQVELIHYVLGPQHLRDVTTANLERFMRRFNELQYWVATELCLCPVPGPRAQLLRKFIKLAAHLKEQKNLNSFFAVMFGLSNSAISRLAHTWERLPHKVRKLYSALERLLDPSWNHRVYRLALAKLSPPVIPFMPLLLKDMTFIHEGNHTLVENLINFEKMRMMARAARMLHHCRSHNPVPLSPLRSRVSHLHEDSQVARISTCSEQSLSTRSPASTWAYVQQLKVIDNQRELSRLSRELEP
- Protocol Notes: Binding affinity to human EPAC1 cAMP binding domain (149 to 318 residues) in presence of human serum albumin by [15N-1H]HSQC spectroscopic analysis
- Assay Setup: read-out: Kd(app)
Quantity: Kd

[[record]]
smiles_input = "C[C@@H]1CCc2c(cc(Br)c(F)c2Br)N1C=O"
test_target = "UniProt:O95398"
quantity = "Kd"
observed_measurement = "757 to 1980 µM"


---

- Protocol Notes: Binding affinity to Triton-X 100 assessed as line broadening at 150 uM by 1H-NMR spectra analysis
Active and inactive are the calls of the source. The rule behind the calls is not given here.
Labels: true (1) for active, false (0) for inactive

[[record]]
compound = "O=C(O)c1cc(-c2ccc(F)cc2F)ccc1O"
assigned_class = "true (1)"

[[record]]
compound = "O=S(=O)(O)c1cccc2cccc(Nc3ccccc3)c12"
assigned_class = "true (1)"

[[record]]
compound = "Nc1nnc(-c2cccc(Cl)c2Cl)c(N)n1"
assigned_class = "false (0)"

[[record]]
compound = "Clc1ccc(COC(Cn2ccnc2)c2ccc(Cl)cc2Cl)c(Cl)c1 (configuration not stated)"
assigned_class = "true (1)"

[[record]]
compound = "COC(=O)C1=C(C)NC(C)=C(C(=O)OCCN(C)Cc2ccccc2)C1c1cccc([N+](=O)[O-])c1 (configuration not stated)"
assigned_class = "true (1)"

[[record]]
compound = "Clc1ccccc1C(c1ccccc1)(c1ccccc1)n1ccnc1"
assigned_class = "true (1)"

[[record]]
compound = "O=C(OCc1ccccc1)c1ccccc1"
assigned_class = "true (1)"

